Target: human 15-PGDH (Homo sapiens)
Construct: comprising residues 3–256 of the human HPGD gene (GenBank identifier: 1203982); His6 (GHHHHHH, behind the TEV site) (C, cleaved yes); made in house; host or cells: E. coli BL21(DE3)-R3
Sequence (P15428 3-256): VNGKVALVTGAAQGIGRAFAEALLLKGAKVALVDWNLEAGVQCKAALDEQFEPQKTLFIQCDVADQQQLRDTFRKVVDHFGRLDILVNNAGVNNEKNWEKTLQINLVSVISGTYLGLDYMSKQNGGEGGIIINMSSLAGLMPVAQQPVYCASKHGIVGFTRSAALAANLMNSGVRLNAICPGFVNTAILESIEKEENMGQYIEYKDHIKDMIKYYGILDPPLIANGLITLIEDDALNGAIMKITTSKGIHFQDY
Assay: qHTS and 24-point re-test: fluorescence assay of NAD+ reduction to NADH on PGE2 oxidation (PubChem AID 894)
Assay type: biochemical
Settings: potency in 24-point titrations on re-test; 20 nM 15-PGDH, 1 mM NAD+, 30 µM PGE2, pH 8.0; read-out: qHTS IC50
readout label: IC50 (nM)

For orientation, consider the following solved cases.
CN1CCCc2cccc(C[S+]([O-])c3ncc[nH]3)c21 (stereo not drawn); 501
O=C(O)c1cccc(Oc2cc(Cl)cc(Cl)c2)c1; 6310
CC(C)(C)OC(=O)NC(Cc1csc2ccccc12)C(=O)CCc1cc(C(F)(F)F)cc(C(F)(F)F)c1 (stereo not drawn); 6310
COc1ccccc1C(=O)Nc1ccc(C(=O)N2CCCC2)cc1; 1000

[a] CC1=NOC(=O)C1=Cc1ccc(-c2ccc(Cl)cc2)o1
[b] CC(=O)Nc1ccc(NC(=O)CSc2nc3c(cc2C#N)CCC3)cc1
Q: Hi there! Just curious which has the higher IC50 between a and b . Select an item and report its label.
Ans: a
